Measured inhibition at 10 µM values are reported for all entries that follow.
subject.of.test: CYP3A4 (Homo sapiens)
Sequence (P08684 whole entry): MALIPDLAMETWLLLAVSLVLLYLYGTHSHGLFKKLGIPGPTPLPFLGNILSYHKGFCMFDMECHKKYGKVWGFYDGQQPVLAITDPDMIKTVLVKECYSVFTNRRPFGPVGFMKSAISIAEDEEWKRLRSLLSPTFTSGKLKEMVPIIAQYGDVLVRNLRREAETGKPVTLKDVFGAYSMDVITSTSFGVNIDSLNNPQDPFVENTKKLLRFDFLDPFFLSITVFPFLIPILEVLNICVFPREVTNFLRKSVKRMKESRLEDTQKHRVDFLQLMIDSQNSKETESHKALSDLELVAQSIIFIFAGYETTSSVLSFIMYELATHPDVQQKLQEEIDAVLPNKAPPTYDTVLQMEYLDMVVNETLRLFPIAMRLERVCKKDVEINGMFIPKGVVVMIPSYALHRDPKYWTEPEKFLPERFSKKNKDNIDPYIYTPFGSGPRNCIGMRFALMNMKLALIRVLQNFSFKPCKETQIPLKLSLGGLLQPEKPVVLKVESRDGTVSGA
protocol.details: Cytochrome P450 (CYP450) Inhibition Assay, CYP3A4 (Vivid fluorescence, BOMCC substrate)
experimental.conditions: human, P450 Baculosomes (recombinant CYP3A4), probe BOMCC (Vivid substrate)

(Q) For the compound O=C1N(Cc2ncccc2C(F)(F)F)c2ccccc2C12COc1cc3[nH]ncc3cc12 (centres unmarked) [Example 46.2] , give its measured inhibition at 10 µM value.
(A) > 50%

(Q) For the compound COCCOCCN1C(=O)C2(COc3ccc(OCCOC)cc32)c2ccccc21 (centres unmarked) [Example 9.76] , give its measured inhibition at 10 µM value.
(A) < 50%

(Q) For the compound O=C1N(Cc2ccc(-c3ccccc3)cc2)c2ccccc2C12COc1cc3c(cc12)CCO3 (centres unmarked) [Example 4.15] , give its measured inhibition at 10 µM value.
(A) < 50%

(Q) For the compound O=C1Nc2ccccc2C12COc1cc(Br)ccc12 (centres unmarked) [Example 3.2] , give its measured inhibition at 10 µM value.
(A) > 50%

(Q) For the compound Cc1ccc(NC(=O)c2ccccc2CN2C(=O)C3(COc4cc5c(cc43)CCO5)c3ccccc32)c(C)c1 (centres unmarked) [Example 12.10] , give its measured inhibition at 10 µM value.
(A) > 50%

(Q) For the compound COc1cc2c(cc1F)C1(CO2)C(=O)N(CC2CCCCO2)c2ccccc21 (centres unmarked) [Example 4.64] , give its measured inhibition at 10 µM value.
(A) < 50%

(Q) For the compound Cl.N#CCCNCCCN1C(=O)C2(COc3cc4c(cc32)CCO4)c2ccccc21 (centres unmarked) [Example 15.4, hydrochloride] , give its measured inhibition at 10 µM value.
(A) > 50%

(Q) For the compound COc1ccc(CN2C(=O)C3(COc4cc5c(C)noc5cc43)c3ccccc32)cc1 (centres unmarked) [Example 2.41] , give its measured inhibition at 10 µM value.
(A) > 50%
